The origin of these recorded values is paper PMC11574364.

MEASUREMENT TARGET: MYEF2(3) (Homo sapiens, UniProt Q9P2K5)
Sequence: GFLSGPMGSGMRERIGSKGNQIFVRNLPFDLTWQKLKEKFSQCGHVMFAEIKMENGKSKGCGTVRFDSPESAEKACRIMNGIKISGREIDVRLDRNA
PROTOCOL: protein domain microarray probed with biotinylated miRNA; Domain array: 20 mM Tris-HCl pH 7.4, 200 mM KCl, 0.2 mM EDTA, 0.05% NP40, 2 ug/ul heparin, overnight 4 C. ORF array: PBS pH 7.0 with RNase inhibitor, 100 ng RNA; high values mean tight binding
RECORDED CONDITIONS: ssRNA
In this section, each of the sequences is paired with its reported binding signal.
RECORDED METRIC: binding signal (fluorescence intensity)

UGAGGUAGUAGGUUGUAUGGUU
560
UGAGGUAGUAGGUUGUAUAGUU
190
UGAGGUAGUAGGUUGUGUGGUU
635
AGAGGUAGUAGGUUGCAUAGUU
578
